Reference for the values: PubChem BioAssay (NCI)

Below, each of the compounds is paired with its reported TGI value.
# Tested on: HOP-18 NSCLC
# assayRemarks: NCI tumour cell line growth inhibition, 48 h

For orientation, consider the following solved cases.
CC1=CCN(c2ccccn2)OC1c1ccccc1 (configuration not stated)    > 100 µM
Cc1ccc(NCCN(C)C)c2c(=O)c3cc(O)ccc3sc12    15.3 µM
COc1ccc2c(c1)[n+](=O)c(C(C)=O)c(C)n2[O-]    > 100 µM
CC(=O)[C@]1(O)Cc2c(O)c3c(c(O)c2[C@@H](OC2CC(N)C(O)C(C)O2)C1)C(=O)c1c(OCc2ccccc2)cccc1C3=O (some centres not stated)    3.33 µM
CN(C)c1ccc(O[Si](Oc2ccc(N(C)C)cc2)(Oc2ccc(N(C)C)cc2)Oc2ccc(N(C)C)cc2)cc1    > 100 µM

# input compound: Nc1nc(=S)[nH]c(C(=O)Nc2nccs2)c1-c1ccccc1 ; wanted: its TGI
> 100 µM

# input compound: N#CCCN(CCC#N)c1ccc(C=Nc2ccc(F)cc2)cc1 ; wanted: its TGI
> 100 µM

# input compound: O=C1CNN=C(Cn2nc(-c3ccccc3)c3ccccc3c2=O)N1 ; wanted: its TGI
> 100 µM

# input compound: CC(C)=CCC/C(C)=C/C=C/C(C)=C/C1C[C@@]2(C(O)O1)[C@H](CCCO)/C(=C(/C)C=O)CC[C@]2(C)O (some centres not stated) ; wanted: its TGI
33.4 µM

# input compound: O=C(/C(=C/c1ccc(O)cc1)c1ccccc1)c1ccccc1 ; wanted: its TGI
33.4 µM

# input compound: Cc1nc(-n2nc(-c3ccccc3)cc2-c2ccccc2)sc1C(=O)/C=C/c1ccccc1 ; wanted: its TGI
> 100 µM

# input compound: CCCCCCCCCCCCCCC(C)CCC(=O)O (configuration not stated) ; wanted: its TGI
> 100 µM

###

# System: NCI-H460 lung
Lab note: assign the record to one of active, inactive

Look over these answered cases.
[Cl-].[Gd+3].[O-]/N=C(\c1ccccc1)c1ccccn1.[O-]/N=C(\c1ccccc1)c1ccccn1.[O-]/N=C(\c1ccccc1)c1ccccn1    inactive
COC(=O)c1ccc2[nH]c(O)c(C(=Nc3ccc(N(C)C(=O)CN4CCN(C)CC4)cc3)c3ccccc3)c2c1    inactive
COc1ccc(/C=C\c2cc(OC)c(OC)c(OC)c2)c(NS(=O)(=O)c2ccc(C(C)(C)C)cc2)c1O    active

Turning now to a further compound:
Look up the recorded call for OCCCCC#Cc1ccccc1C#Cc1ccc(C(F)(F)F)cc1 in this test.
inactive

###

# Test system: SK-MEL-2 melanoma
# assayRemarks: NCI tumour cell line growth inhibition, 48 h; in the data active = GI50 below about 0.43 µM; inactive = the rest
Lab note: assign the record to one of T for active, F for inactive

COc1ccc(/C=C\c2cc(OC)c(OC)c(OC)c2)c(NS(=O)(=O)c2ccc(C(C)(C)C)cc2)c1O    F
COc1ccc(/C(C)=C(\c2ccc(Cl)cc2)c2ccc(OCCN3CCCCCC3)cc2)cc1F    F
COc1ccc(OCC(O)CN2CCN(c3ccc(Cl)cc3)CC2)cc1 (stereo not given)    F
CC1OC(OC2C(O[C@H]3CC[C@@]4(C)C(=CC[C@H]5[C@@H]6C[C@@H]7O[C@]8(CC[C@@H](C)CO8)[C@@H](C)[C@@H]7[C@@]6(C)CC[C@@H]54)C3)OC(CO)C(OC3OC(CO)C(O)C3O)C2O)C(O)C(O)C1O (stereo not given in full)    F
CCN(CC)CCOc1ccc2c(C)c(C(=O)OC)oc2c1C(=O)/C=C/c1ccc(OC)cc1    F
COc1cc2c(cc1OCCCOc1ccc(-c3cc4ccccc4c4ccccc34)cc1)N=C[C@@H]1CCCN1C2=O    T
CCN1CCN(c2nc(NNC(=O)c3ccccc3)nc(N3CCN(C(c4ccccc4)c4ccccc4)CC3)n2)CC1    F
NC(N)=N/N=C/c1c(-c2ccncc2)nc2sc(Cl)cn12    F

Look up the recorded call for CCCCCCCCCCCCOC1C(C(CC(=O)N2CCN(Cc3ccc4c(c3)OCO4)CC2)NS(=O)(=O)c2cc(Cl)cc(Cl)c2)OC2OC(C)(C)OC21 (stereo not given) in this test.
F

Look up the recorded call for COc1cc(OC)cc(-c2ccc(-c3ccc(C(=N)N)cn3)s2)c1 in this test.
F

###

# System: NCI-H460 lung
# assayRemarks: NCI tumour cell line growth inhibition, 48 h
Below, each of the compounds is paired with its reported TGI value.
Report only the number, with the unit µM understood.

# input compound: CC(=O)[C@]1(O)Cc2c(O)c3c(c(O)c2[C@@H](OC2CC(N)C(O)C(C)O2)C1)C(=O)c1c(OCc2ccccc2)cccc1C3=O (stereo partly specified) ; wanted: its TGI
6.31

# input compound: CN(C)c1ccc(N=C2C=CC(=C(C#N)C#N)c3ccccc32)cc1 ; wanted: its TGI
7.08

# input compound: COc1cc(/C=C2\C(=O)N(C)c3ccccc32)cc(OC)c1OC ; wanted: its TGI
64.1

# input compound: N#CC(NC(=O)CCl)=C(Cl)Cl ; wanted: its TGI
7.47

# input compound: Clc1ccc2c(NCCCN3CCN(c4nc(N5CCOCC5)nc5ccccc45)CC3)ccnc2c1 ; wanted: its TGI
3.84

###

# System: NCI-H23 lung
# assayRemarks: NCI tumour cell line growth inhibition, 48 h
metricName: TGI

O=c1[nH]c2ccc([N+](=O)[O-])cc2nc1/C(=N/Nc1ccccc1)C(O)c1ccco1 (stereo unspecified)    > 100 µM
COc1cccc(C2C(C#N)=C(N)Oc3cc4c(cc32)OCO4)c1 (stereo unspecified)    15.8 µM
Oc1ccccc1C=Nc1nc(OCc2ccccc2)nc2[nH]ncc12    79.7 µM
COc1ccc(N=Nc2c(N)nn3c(SC)c(C#N)c(N)nc23)cc1    21.1 µM
S=c1[nH]n2c(COc3cc(Cl)c(OCc4nnc5sc(=S)[nH]n45)cc3Cl)nnc2s1    > 100 µM

# input compound: O=C(c1ccccc1)c1cc(Cl)ccc1NCn1nnc2ccccc21 ; wanted: its TGI
> 100 µM

# input compound: COc1ccc(OC)c2c(=O)c3ccccc3[nH]c12 ; wanted: its TGI
> 100 µM

# input compound: CC1(Cl)CC(C)(/C=C/Cl)C(Cl)CC1Cl (stereo unspecified) ; wanted: its TGI
44.1 µM

# input compound: CC(=O)[C@]1(O)Cc2c(O)c3c(c(O)c2[C@@H](OC2CC(N)C(O)C(C)O2)C1)C(=O)c1c(OCc2ccccc2)cccc1C3=O (stereo partly specified) ; wanted: its TGI
6.9 µM

###

Below, each of the compounds is paired with its reported TGI value.
# Test system: RPMI-8226 leukemia
# assayRemarks: NCI tumour cell line growth inhibition, 48 h
Report only the number, with the unit µM understood.

For orientation, consider the following solved cases.
O=C(/C(=C/c1ccc(O)cc1)c1ccccc1)c1ccccc1    42.3
COc1ccc(/C=N/NC(=S)Nc2cc(C)ccc2OC)cc1    27.6
O=c1[nH]c2ccc([N+](=O)[O-])c(Cl)c2c2ccccc12    33.7

# input compound: C=C1CC/C=C(\C)CC[C@H](C(=C)C)[C@@H](O)/C=C(/CO)CCC1O (stereo not given in full) ; wanted: its TGI
71.6

# input compound: O=C(Oc1ccc2c(c1)CN(Cc1ccccc1)CO2)c1ccccc1 ; wanted: its TGI
52.7

###

# System: SR leukemia
# assayRemarks: NCI tumour cell line growth inhibition, 48 h; in the data active = GI50 below about 0.43 µM; inactive = the rest
Lab note: assign the record to one of yes (1) for active, no (0) for inactive

Look over these answered cases.
Cn1ccnc1C(=O)/C=C/c1ccc(C(=O)Nc2c(F)c(F)c(F)c(F)c2F)cc1    yes (1)
Fc1ccc(-c2nn3c(COc4ccc(Cl)cc4)nnc3s2)cc1Oc1ccccc1    no (0)
COc1cc2cc3c(c(O)c2c(O)c1-c1c(OC)cc2cc4c(c(O)c2c1O)C(=O)O[C@H](C)C4)C(=O)O[C@H](C)C3    no (0)
CC(C)=CCCC1(C)C2COC(=O)C21 (stereo not drawn)    no (0)
Cc1ccnc(Nc2ccc([N+](=O)[O-])c(NCCN3CCOCC3)n2)c1    yes (1)

Look up the recorded call for O=NN(CCCl)C(=O)NC1CCCCC1 in this test.
no (0)

Look up the recorded call for Oc1ccccc1C=Nc1nc(OCc2ccccc2)nc2[nH]ncc12 in this test.
no (0)

Look up the recorded call for COc1ccc(-c2cc(-c3ccccc3)nc(NCCNc3ccnc4cc(Cl)ccc34)n2)cc1 in this test.
no (0)

###

# Tested on: SK-MEL-5 melanoma
# assayRemarks: NCI tumour cell line growth inhibition, 48 h
Mark label 1 for reported TGI of 10 µM or greater; mark label 0 for anything smaller.

Look over these answered cases.
C[n+]1c2ccccc2c(C(=O)Nc2ccc(S(=O)(=O)Nc3ncccn3)cc2)c2ccccc21    label 1
COc1cc2cc3c(c(O)c2c(O)c1-c1c(OC)cc2cc4c(c(O)c2c1O)C(=O)O[C@H](C)C4)C(=O)O[C@H](C)C3    label 1
c1cncc(C2ONC3=NCCN32)c1 (stereo unspecified)    label 1

Turning now to a further compound:
Determine whether measured TGI meets or exceeds 10 µM for COc1ccc2c(c1)CC[C@@H]1C2CC[C@]2(C)C(=C=CP(=O)(O)O)CCC12 (stereo partly specified)
label 1
